- TARGET DESC: Nonstructural protein 5 (Dengue virus, UniProt V5TFZ2)
- Sequence (V5TFZ2 whole entry): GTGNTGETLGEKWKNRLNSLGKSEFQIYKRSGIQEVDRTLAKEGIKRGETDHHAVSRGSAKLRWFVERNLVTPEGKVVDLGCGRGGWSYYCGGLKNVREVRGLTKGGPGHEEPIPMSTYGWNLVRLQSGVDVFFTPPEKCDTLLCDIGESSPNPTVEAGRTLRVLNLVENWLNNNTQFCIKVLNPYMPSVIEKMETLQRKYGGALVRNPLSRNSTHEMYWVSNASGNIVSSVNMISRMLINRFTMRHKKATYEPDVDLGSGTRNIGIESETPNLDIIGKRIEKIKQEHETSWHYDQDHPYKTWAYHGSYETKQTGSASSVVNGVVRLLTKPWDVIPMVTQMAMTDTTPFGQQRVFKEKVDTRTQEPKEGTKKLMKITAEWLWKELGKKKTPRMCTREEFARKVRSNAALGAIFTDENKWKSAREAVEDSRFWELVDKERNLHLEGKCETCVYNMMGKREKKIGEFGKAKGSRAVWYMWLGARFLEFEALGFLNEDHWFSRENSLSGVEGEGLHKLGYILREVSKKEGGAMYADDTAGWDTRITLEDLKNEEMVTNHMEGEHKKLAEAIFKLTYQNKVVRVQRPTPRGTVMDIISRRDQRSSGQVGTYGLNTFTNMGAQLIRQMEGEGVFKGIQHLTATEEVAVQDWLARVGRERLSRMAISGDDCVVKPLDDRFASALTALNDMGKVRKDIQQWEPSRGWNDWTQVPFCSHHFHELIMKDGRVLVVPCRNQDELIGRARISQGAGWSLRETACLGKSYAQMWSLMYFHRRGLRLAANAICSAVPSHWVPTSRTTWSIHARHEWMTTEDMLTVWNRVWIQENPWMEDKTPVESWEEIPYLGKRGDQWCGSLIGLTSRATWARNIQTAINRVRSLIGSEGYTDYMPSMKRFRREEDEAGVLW
- ASSAY TEXT: Mixed type inhibition of DENV3 NS5 RdRp using increasing concentration of GTP as substrate assessed as free enzyme after 1 hr in presence of ss-RNA PolyC template by Lineweaver-Burk double reciprocal plot analysis
- Design: species or system dengue virus type 3
pKi: −log10 of the molar value.
MEASURE NAME: pKi

CHEM SMILES: O=C(OC1=CS(=O)(=O)Nc2ccc(Oc3ccccc3Br)cc21)c1ccc(F)c(F)c1
MEASURE NAME: pKi
OBSERVED MEASUREMENT: 6.60

* * *

- TARGET DESC: Nonstructural protein 5 (Dengue virus, UniProt V5TFZ2)
- ASSAY TEXT: Inhibition of DENV3 NS5 RdRp using ss-RNA PolyC as template and GTP as substrate assessed as decrease in dsRNA levels after 1 hr by PicoGreen-based fluorescence assay
- Design: species or system dengue virus type 3
pIC50: −log10 of the molar value.

CHEM SMILES: COc1ccc(C(=O)OC2=CS(=O)(=O)Nc3ccc(Oc4cccc(Br)c4)cc32)cc1[N+](=O)[O-]
VALUE MODIFIER: =
pIC50: 5.33

CHEM SMILES: COC1=CS(=O)(=O)Nc2ccc(Oc3ccccc3Br)cc21
VALUE MODIFIER: <
pIC50: 4.30

CHEM SMILES: O=C(OC1=CS(=O)(=O)Nc2ccc(Oc3ccccc3Br)cc21)c1ccccc1
VALUE MODIFIER: =
pIC50: 4.51

CHEM SMILES: CC(C)(C)c1cccc(Oc2ccc3c(c2)C(OC(=O)c2ccccc2)=CS(=O)(=O)N3)c1
VALUE MODIFIER: =
pIC50: 4.80
